This collection of values is drawn from PubChem BioAssay AID651783.

# Subject of test: Trace amine-associated receptor 1 (Homo sapiens)
# Protocol: activators of TAAR1 calcium signal, triplicate retest – Fluo-8 calcium fluorescence, CHO RD-HGA16 cells, confirmation (AID 651783);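 further: promiscuous G-alpha-16 overexpression reroutes TAAR1 signalling from cAMP to calcium; peak fluorescence divided by basal pre-compound fluorescence per well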
# Condition set: CHO RD-HGA16 TAAR1, Fluo-8 calcium fluorescence; at 3 µM; stronger effect = higher value; scaled: DMSO 0%, maximal phenethylamine 100%
About 2,000 (83%) of roughly 2,400 compounds were called active. So high a share suggests a set chosen from earlier hits. Only a sample is shown.
Classification field: Condition met = activation at or over 80%; Condition not met = activation under 80%.

Molecule: Cc1cc(C)c2cc(C#N)c(N3CCNCC3)nc2c1
Subject of test: Trace amine-associated receptor 1 (Homo sapiens)
Assigned label: Condition met

Molecule: CCc1c(-c2ccccc2OC)ncn1CCc1ccccc1OC
Subject of test: Trace amine-associated receptor 1 (Homo sapiens)
Assigned label: Condition met

Molecule: Nc1c(NCCc2ccccc2)c2ccccc2oc1=O
Subject of test: Trace amine-associated receptor 1 (Homo sapiens)
Assigned label: Condition not met

Molecule: COc1ccc(OC)c(NC(=S)N2CCc3ccccc3C2)c1
Subject of test: Trace amine-associated receptor 1 (Homo sapiens)
Assigned label: Condition met

Molecule: COCCCn1c(Cc2csc(Nc3cccc(Cl)c3)n2)nnc1SCC(=O)OC1CCCCC1
Subject of test: Trace amine-associated receptor 1 (Homo sapiens)
Assigned label: Condition not met

Molecule: CN(C)CCCN(C(=O)c1ccc(S(=O)(=O)N2CCCc3ccccc32)cc1)c1nc2ccc(F)cc2s1
Subject of test: Trace amine-associated receptor 1 (Homo sapiens)
Assigned label: Condition not met

Molecule: Nc1c(C(=O)c2cccs2)sc2nsc(SCCN3CCCCC3)c12
Subject of test: Trace amine-associated receptor 1 (Homo sapiens)
Assigned label: Condition met

Molecule: CCCCCCCCCCOC(=O)Cn1c(COc2ccc(C)cc2)[n+](C)c2ccccc21
Subject of test: Trace amine-associated receptor 1 (Homo sapiens)
Assigned label: Condition met

Molecule: COc1cccc(-c2cnc(OC(C)(C)C)nc2OC(C)(C)C)c1
Subject of test: Trace amine-associated receptor 1 (Homo sapiens)
Assigned label: Condition not met

Molecule: COc1ccc2c(c1)OC(O)(C(F)(F)C(F)F)CC2=O (stereo not given)
Subject of test: Trace amine-associated receptor 1 (Homo sapiens)
Assigned label: Condition not met
